- measurement protocol: self-splicing fitness, log relative to wild type (ln ratio); higher = more splicing; Tetrahymena group I intron in knt gene, E. coli kanamycin selection, DiMSum; sequences stand for … in CUCUCU…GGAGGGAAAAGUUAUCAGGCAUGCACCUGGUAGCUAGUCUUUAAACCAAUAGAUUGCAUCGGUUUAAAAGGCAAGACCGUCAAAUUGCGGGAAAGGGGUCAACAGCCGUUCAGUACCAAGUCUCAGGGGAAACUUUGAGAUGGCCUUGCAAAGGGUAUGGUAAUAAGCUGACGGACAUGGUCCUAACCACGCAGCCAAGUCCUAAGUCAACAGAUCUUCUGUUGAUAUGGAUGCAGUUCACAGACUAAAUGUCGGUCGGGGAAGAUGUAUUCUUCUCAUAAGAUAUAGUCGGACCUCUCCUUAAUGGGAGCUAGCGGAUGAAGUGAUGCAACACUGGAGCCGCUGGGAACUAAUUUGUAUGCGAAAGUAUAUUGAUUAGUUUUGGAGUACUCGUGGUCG;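 also: selection with 25 µg/mL kanamycin versus none on LB agar overnight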
- measurement setup: 37 °C
Param threshold (-0.4) applies to self-splicing fitness (ln); output Criterion met when value >= threshold, Criterion not met when value < threshold.

> print(dat)
          sequence.input  qualitative.label
 1  UGCCAGCAAUAUUACGGCCA      Criterion met
 2  UCACAGCAAUAUUACGUAGG  Criterion not met
 3  GCGCAGCAAUAUUACGCGAA      Criterion met
 4  UGCGAGCAAUAUUACGUAUU  Criterion not met
 5  AGGAAGCAAUAUUACGGCCG  Criterion not met
 6  CGACAGCAAUAUUACGCCCC      Criterion met
 7  GGGCAGCAAUAUUACGACGA  Criterion not met
 8  CCCUAGCAAUAUUACGACUC  Criterion not met
 9  ACUAAGCAAUAUUACGGACA      Criterion met
10  ACGAAGCAAUAUUACGACGC      Criterion met
11  GUUCAGCAAUAUUACGAAAC  Criterion not met
12  GCAUAGCAAUAUUACGCUCG      Criterion met
13  AUAGAGCAAUAUUACGCGCC  Criterion not met
14  GUGGAGCAAUAUUACGAUCC  Criterion not met
15  UUGUAGCAAUAUUACGAAAG  Criterion not met
16  GUACAGCAAUAUUACGACCU      Criterion met
